# assay explanation: Selectivity index, ratio of IC50 for rat L6 cells to IC50 for trypomastigotes of Trypanosoma brucei rhodesiense STIB 900
# Format: toxicity, cell-based
# stated conditions: read-out: Ratio IC50

smiles code | selectivity ratio
O=C(NC(=O)c1ccccc1O)c1ccc([N+](=O)[O-])cc1 | < 0.53
O=C(NC(=O)c1ccccc1O)c1ccc2c(c1)OCO2 | < 0.47
CCc1ccc(C(=O)Nc2cn(C(C)=O)c3ccccc23)cc1 | < 0.46
